protocol-description: Counterscreen qHTS for small molecule stabilizers of the endoplasmic reticulum resident proteome: GLuc-NoTag assay (AID 1508627)
experimental-parameters: Gaussia luciferase NoTag secretion counterscreen, luminescence, thapsigargin 100 nM for final 4 h; series mostly up to 76.4 µM
Inconclusive results are not listed. The source made the active and inactive calls. Calls follow the shape of the dose curve; as a rule, active = well fitted inhibition curve with a large enough effect; inconclusive = small, poorly fitted or top-dose-only effect; inactive = no such curve, though single readings can be large or run the other way.
In this exercise, the only acceptable responses are active, inactive

Request: Query: recorded result category for CCC(Sc1ccccc1)C(=O)OC1CC2CCC(C1)N2C (stereo not given) in this test
Result: inactive

Request: What outcome does the record of this test show for CC(C)[C@@]1(NC(=O)[C@@H]2C[C@H]3c4cccc5[nH]cc(c45)C[C@@H]3N(C)C2)O[C@@]2(O)[C@H]3CCCN3C(=O)[C@H](Cc3ccccc3)N2C1=O ?
Result: inactive

Request: Lab log entry: Cn1c2c(c3ccccc31)CCNCC2 — outcome as called in the assay?
Result: inactive

Request: Fill in: this test's call for OC[C@@H]1[C@@H](O)[C@H](O)[C@H]2[C@@H](O)CCN21 is ___
Result: inactive

Request: Recorded call for C[C@H]1C[C@H](C)C(=O)[C@@H]([C@H](O)CC2CC(=O)NC(=O)C2)C1 ?
Result: active

Request: In this assay, the call recorded for CC(C)(O)C1O[C@H]2CC[C@@]3(C)[C@@](O)(CC[C@H]4Cc5c([nH]c6ccccc56)[C@@]43C)C2=CC1=O (stereo not given in full) was what?
Result: inactive

Request: Entry COc1ccc2[nH]cc(C3=CCNCC3)c2c1 : call = ?
Result: active

Request: // return assay outcome for CN1CC[C@@]2(c3cccc(O)c3)Cc3nc4ccccc4cc3C[C@H]2C1
Result: inactive

Request: Any idea what this test logged for CC(=O)C1=C(O)[C@@H]2[C@@H]3c4c[nH]c5cccc(c45)C[C@@H]3C(C)(C)N2C1=O ?
Result: inactive

Request: Look up the recorded call for C[C@@H](C(=O)OC1C[C@H]2CC[C@@H](C1)N2C)c1ccc(Br)cc1 (stereo not given in full) in this test.
Result: inactive
